- Tested on: B16-F10 cells
- ASSAY: Cell cycle assay in B16-F10 cells
- Assay type: cell-based, mouse
- CONDITION LABEL: 150 nM, 48 hours, relative to untreated control
- Experimental: BJ cells were routinely cultured in MEM high glucose with 2 mM L-glutamine and Earle's BSS adjusted to contain 1.5 g/L sodium bicarbonate and supplemented with 10% fetal bovine serum, 0.1 mM non-essential amino acids and 1.0 mM sodium pyruvate (all media and supplements from Invitrogen Life Technologies, Carlsbad, Calif.). […]
In the oligonucleotide strings, read from the 5' end, every base follows the letter of its sugar. An asterisk marks phosphorothioate; unmarked linkages are phosphodiester. Other units and linkages are bracketed, terminal groups are in braces. A string of capitals states the bases alone. e = 2'-O-(2-methoxyethyl) (MOE); [5mC] = 5-methylcytosine; d = 2'-deoxy (DNA)
# % cells in cell cycle phase S per entry
Only the number, expressed in %, is required.

Please review the entries below; each comes with its answer.
>>> reported_result("327902 (antisense eG*eG*e[5mC]*eT*eG*eT*e[5mC]*eA*eA*eT*eT*e[5mC]*eA*eT*eA*eG*eG*eT*e[5mC]*eA*eG) [compound 327902]")
88
>>> reported_result("285717 (antisense TCGGTTCTTTCCAAGGCTGA; chemistry not given here) [compound 285717]")
78
>>> reported_result("328759 (antisense eG*eA*eG*eG*eG*dA*dT*dT*dG*dT*dA*dT*dG*dA*dA*e[5mC]*eA*eT*e[5mC]*eT) [compound 328759]")
91
>>> reported_result("328744 (antisense e[5mC]*eG*eG*eA*eT*d[5mC]*d[5mC]*dT*dG*dT*dT*dA*d[5mC]*d[5mC]*dT*e[5mC]*eA*e[5mC]*e[5mC]*eA) [compound 328744]")
87
>>> reported_result("345395 (AAGGGATTCCTGGGAAAACTGGAC; sugars from the 5' end e5 d10 e9, all phosphorothioate, methylation of C not given here) [compound 345395]")
87

Now turn to the next substance.
For record 328403 (antisense eA*eG*eG*e[5mC]*e[5mC]*dT*dA*dT*dT*d[5mC]*d[5mC]*dT*dG*dT*dA*eG*e[5mC]*eA*eA*eA) [compound 328403] the listed % cells in cell cycle phase S is 88
